Where a SMILES comes first, the peptide text is derived from it.
PARAMETER: logP

MOLECULE	PARAMETER	MEASUREMENT
Clc1cc(Cl)cc(-c2cccc(Cl)c2Cl)c1	logP	6.17
COc1cc2c(c(OC)c1OC)-c1ccc(OC)c(=O)cc1C(NC(=O)C(F)(F)F)CC2 (stereo not drawn)	logP	1.72
COC1=C(C)C(=O)c2c(c(COC(N)=O)c3n2CCC3OC(C)=O)C1=O (stereo not drawn)	logP	1.54
CCCOc1cccc(NC(=O)OCCN2CCOCC2)c1	logP	3.04
C=CCN(C)N=Nc1ccccc1C(N)=O	logP	2.91
CCOc1cccc(OCc2ccccc2CCCN2CCC(O)CC2)c1	logP	3.5
Cc1ncc(CO)c(COCCC(C)C)c1O	logP	0.83
CCC(C)NC(=O)C(=Cc1ccccc1)Cc1ccccc1 (stereo not drawn)	logP	3.99
CN(C)N=Nc1nccs1	logP	1.27
CC(=O)NC(CCCCN)C(=O)NC(Cc1ccccc1)C(=O)NC(C(N)=O)C(C)C (stereo not drawn)	logP	0.51
COCCCNC(=S)C(F)(F)Cn1cnc([N+](=O)[O-])n1	logP	1.1
CC(=O)NC(CC(=O)O)C(=O)NC(Cc1ccccc1)C(=O)NC(CC(C)C)C(N)=O (stereo not drawn) (Ac-Asp-Phe-Leu-NH2; configuration not given here)	logP	0.4
CCOc1ccc(C(=O)O)cc1OCC	logP	2.37
CCCCCCCOc1ccc(NC(=O)OCCN2CCOCC2)cc1	logP	4.96
c1ccc(-c2ccc(C(c3ccccc3)n3ccnc3)cc2)cc1 (stereo not drawn)	logP	4.77
CCC(C)C(NC(C)=O)C(=O)NC(CC(C)C)C(=O)NC(CC(=O)O)C(N)=O (stereo not drawn) (Ac-Ile-Leu-Asp-NH2; configuration not given here)	logP	-0.04
Cc1nc([N+](=O)[O-])cn1C	logP	-0.24
CCOC(=O)CCC(C)n1nnc2ccccc21 (stereo not drawn)	logP	2.64
Clc1cc2c(c(Cl)c1Cl)Oc1c(Cl)cccc1O2	logP	6.39
Cc1cc(OCCN(C)C)c(C(C)C)cc1OS(=O)(=O)C12CCC(CC1=O)C2(C)C (stereo not drawn)	logP	4.37
CC(C)(C)C(COc1ccc(C(F)(F)F)cc1)OC(=O)n1ccnc1 (stereo not drawn)	logP	4.15
O=C(O)CCC(S)CCS (stereo not drawn)	logP	1.4
Clc1cc(Cl)cc(-c2cc(Cl)c(Cl)c(Cl)c2Cl)c1	logP	7.43
